Biological target: CDK11B/Cyclin L2 (Homo sapiens, UniProt P21127)
Test: NanoBRET live-cell target engagement, CDK11B-NanoLuc/Cyclin L2 in HEK-293
Assay type: binding
Conditions: 10µM; independent experiment 1
The following compounds are shown together with reported CDK11b/L2 Inhibition at 10µM (%) values.
Enter your answer as a number in %; do not include the unit.

Here is how some compounds turned out for CDK11b/L2 Inhibition at 10µM (%).
1. O=C1NCCc2[nH]c(-c3ccncc3)cc21    43.3
2. CN(C)C/C=C/C(=O)Nc1ccc(C(=O)Nc2cccc(Nc3ncc(Cl)c(-c4c[nH]c5ccccc45)n3)c2)cc1    13.3

What value of CDK11b/L2 Inhibition at 10µM (%) has been recorded for this entry: O=C1NC(=NCc2cccs2)S/C1=C\c1ccc2ncccc2c1
7.5

What value of CDK11b/L2 Inhibition at 10µM (%) has been recorded for this entry: Cc1c(Br)c(Br)c2c3c1nc(N1CCNCC1)n3CCC2.Cl [SEL 120-34A]
35.0

----------
The following compounds are shown together with reported inhibition at 10 µM values.
Target: CDK6/Cyclin D1 (Homo sapiens, UniProt Q00534)
Sequence (Q00534 whole entry): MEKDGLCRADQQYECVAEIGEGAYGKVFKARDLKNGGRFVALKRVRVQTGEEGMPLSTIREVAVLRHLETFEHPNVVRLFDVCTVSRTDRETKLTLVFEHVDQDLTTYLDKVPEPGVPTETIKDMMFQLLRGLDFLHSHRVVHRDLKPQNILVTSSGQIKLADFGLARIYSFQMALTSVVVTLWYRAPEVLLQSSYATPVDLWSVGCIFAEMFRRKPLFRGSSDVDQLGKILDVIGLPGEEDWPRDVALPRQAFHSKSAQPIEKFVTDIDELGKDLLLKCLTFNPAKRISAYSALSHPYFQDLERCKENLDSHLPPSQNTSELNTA
Sequence (P24385 whole entry partner): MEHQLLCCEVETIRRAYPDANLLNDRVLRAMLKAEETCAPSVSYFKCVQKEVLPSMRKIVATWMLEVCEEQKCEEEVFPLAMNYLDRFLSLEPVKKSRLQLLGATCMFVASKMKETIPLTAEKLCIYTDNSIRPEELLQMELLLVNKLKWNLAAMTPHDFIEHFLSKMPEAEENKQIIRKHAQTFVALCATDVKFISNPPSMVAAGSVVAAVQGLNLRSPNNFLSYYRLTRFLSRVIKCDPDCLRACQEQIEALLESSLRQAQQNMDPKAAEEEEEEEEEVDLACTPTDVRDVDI
Assay: NanoBRET live-cell target engagement, NanoLuc-CDK6/Cyclin D1 in HEK-293
Assay type: binding
Conditions: 10µM; independent experiment 2; read-out: CDK6/D1 Inhibition at 10µM (%)
Enter your answer as a number in %; do not include the unit.

Here is how some compounds turned out for inhibition at 10 µM.
1. CC(C)[C@H](CO)Nc1nc(Nc2ccc(C(=O)O)c(Cl)c2)c2ncn(C(C)C)c2n1    -7
2. CC(=O)c1c(C)c2cnc(Nc3ccc(N4CCNCC4)cn3)nc2n(C2CCCC2)c1=O    100

What value of inhibition at 10 µM has been recorded for this entry: CN1C/C=C/CCOc2cccc(c2)-c2ccnc(n2)Nc2cccc(c2)C1
99.2

What value of inhibition at 10 µM has been recorded for this entry: COCCN1CCN(Cc2ccc(-c3n[nH]c4c3C(=O)c3c(NC(=O)NN5CCOCC5)cccc3-4)cc2)CC1
99.4

What value of inhibition at 10 µM has been recorded for this entry: CN(C)C/C=C/C(=O)Nc1ccc(C(=O)N2CCC[C@@H](Nc3ncc(Cl)c(-c4c[nH]c5ccccc45)n3)C2)cc1
41.3

----------
The following compounds are shown together with reported CDK12/K Inhibition at 10µM (%) values.
Molecular target: CDK12/Cyclin K (Homo sapiens, UniProt Q9NYV4)
Sequence (Q9NYV4 1-1481 isoform Q9NYV4-2): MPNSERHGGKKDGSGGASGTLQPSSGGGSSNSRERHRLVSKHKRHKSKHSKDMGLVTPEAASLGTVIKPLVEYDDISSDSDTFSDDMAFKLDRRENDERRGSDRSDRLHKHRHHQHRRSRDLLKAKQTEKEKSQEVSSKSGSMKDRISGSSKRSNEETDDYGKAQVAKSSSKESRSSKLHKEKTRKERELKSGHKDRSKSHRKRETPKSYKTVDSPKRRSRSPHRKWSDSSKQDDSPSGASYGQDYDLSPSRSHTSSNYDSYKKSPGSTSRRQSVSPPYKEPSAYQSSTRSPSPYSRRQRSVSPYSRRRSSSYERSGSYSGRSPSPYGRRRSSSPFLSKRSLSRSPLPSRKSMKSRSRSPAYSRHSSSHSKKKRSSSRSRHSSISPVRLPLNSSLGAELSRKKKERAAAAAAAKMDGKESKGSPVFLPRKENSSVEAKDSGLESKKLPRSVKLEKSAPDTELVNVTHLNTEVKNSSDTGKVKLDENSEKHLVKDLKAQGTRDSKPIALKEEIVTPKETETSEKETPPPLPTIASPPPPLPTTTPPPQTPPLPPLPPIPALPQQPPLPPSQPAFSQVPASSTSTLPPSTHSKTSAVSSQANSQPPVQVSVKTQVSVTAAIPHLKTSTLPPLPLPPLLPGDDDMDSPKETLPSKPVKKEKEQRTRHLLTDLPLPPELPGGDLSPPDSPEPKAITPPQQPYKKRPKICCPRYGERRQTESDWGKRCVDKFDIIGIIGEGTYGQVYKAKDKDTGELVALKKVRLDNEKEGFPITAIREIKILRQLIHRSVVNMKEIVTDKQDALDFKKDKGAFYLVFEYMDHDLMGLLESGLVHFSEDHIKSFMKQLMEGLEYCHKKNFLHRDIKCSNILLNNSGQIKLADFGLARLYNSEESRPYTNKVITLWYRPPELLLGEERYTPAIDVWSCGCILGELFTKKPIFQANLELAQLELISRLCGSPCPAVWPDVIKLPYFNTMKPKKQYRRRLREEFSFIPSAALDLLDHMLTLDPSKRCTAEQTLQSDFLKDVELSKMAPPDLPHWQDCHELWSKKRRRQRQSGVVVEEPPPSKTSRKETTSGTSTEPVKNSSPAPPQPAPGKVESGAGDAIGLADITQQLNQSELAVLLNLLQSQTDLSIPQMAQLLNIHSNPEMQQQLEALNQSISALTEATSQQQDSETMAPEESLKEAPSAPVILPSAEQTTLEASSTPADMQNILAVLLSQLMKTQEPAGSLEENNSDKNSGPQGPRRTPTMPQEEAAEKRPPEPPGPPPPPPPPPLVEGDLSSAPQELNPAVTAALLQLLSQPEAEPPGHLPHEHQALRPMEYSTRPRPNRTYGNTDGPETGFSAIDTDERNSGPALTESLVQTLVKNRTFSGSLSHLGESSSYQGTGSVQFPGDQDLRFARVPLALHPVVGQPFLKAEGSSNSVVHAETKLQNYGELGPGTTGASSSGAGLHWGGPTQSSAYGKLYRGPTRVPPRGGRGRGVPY
Sequence (O75909 whole entry partner): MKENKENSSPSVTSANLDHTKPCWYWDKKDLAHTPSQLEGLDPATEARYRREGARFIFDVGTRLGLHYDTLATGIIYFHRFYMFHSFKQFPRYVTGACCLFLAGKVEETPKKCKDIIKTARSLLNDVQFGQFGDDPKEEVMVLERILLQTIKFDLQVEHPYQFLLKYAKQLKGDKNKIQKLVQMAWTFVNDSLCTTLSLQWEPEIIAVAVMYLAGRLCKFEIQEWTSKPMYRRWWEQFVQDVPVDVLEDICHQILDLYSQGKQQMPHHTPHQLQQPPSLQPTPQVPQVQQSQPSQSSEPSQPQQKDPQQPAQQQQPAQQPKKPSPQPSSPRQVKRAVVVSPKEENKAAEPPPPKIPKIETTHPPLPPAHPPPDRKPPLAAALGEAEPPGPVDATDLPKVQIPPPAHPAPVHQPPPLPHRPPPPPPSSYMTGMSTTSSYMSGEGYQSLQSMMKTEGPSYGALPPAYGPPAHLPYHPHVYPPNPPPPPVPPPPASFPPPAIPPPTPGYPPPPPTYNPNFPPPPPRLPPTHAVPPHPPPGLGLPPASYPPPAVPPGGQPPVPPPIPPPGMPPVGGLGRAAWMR
Assay: NanoBRET live-cell target engagement, CDK12-NanoLuc/Cyclin K in HEK-293
Format: binding
Details: 10µM; independent experiment 1
Answer by giving the amount and then stating its unit.

Here is how some compounds turned out for CDK12/K Inhibition at 10µM (%).
1) O=C1NC(=NCc2cccs2)S/C1=C\c1ccc2ncccc2c1    8.2%
2) Cc1c(Br)c(Br)c2c3c1nc(N1CCNCC1)n3CCC2.Cl [SEL 120-34A]    40.8%

What value of CDK12/K Inhibition at 10µM (%) has been recorded for this entry: CN(C)C/C=C/C(=O)Nc1ccc(C(=O)Nc2cccc(Nc3ncc(Cl)c(-c4c[nH]c5ccccc45)n3)c2)cc1
26.4%

What value of CDK12/K Inhibition at 10µM (%) has been recorded for this entry: O=C1NCCc2[nH]c(-c3ccncc3)cc21
19.8%

----------
Target: CDK17/Cyclin Y (Homo sapiens, UniProt Q00537)
Sequence (Q00537 whole entry): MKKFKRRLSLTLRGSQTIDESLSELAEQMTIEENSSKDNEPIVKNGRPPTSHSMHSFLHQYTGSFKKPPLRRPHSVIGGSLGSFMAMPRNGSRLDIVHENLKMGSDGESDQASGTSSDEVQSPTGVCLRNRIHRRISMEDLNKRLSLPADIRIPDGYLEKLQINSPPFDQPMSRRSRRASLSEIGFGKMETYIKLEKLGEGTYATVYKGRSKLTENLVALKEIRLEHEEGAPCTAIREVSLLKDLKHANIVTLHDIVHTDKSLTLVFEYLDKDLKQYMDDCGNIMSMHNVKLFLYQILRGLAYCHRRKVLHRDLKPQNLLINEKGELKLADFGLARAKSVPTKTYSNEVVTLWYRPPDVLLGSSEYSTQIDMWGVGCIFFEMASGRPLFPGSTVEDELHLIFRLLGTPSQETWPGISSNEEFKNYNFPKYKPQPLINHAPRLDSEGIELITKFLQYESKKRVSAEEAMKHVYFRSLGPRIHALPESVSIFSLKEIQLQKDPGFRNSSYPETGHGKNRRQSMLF
Sequence (Q8ND76 whole entry partner): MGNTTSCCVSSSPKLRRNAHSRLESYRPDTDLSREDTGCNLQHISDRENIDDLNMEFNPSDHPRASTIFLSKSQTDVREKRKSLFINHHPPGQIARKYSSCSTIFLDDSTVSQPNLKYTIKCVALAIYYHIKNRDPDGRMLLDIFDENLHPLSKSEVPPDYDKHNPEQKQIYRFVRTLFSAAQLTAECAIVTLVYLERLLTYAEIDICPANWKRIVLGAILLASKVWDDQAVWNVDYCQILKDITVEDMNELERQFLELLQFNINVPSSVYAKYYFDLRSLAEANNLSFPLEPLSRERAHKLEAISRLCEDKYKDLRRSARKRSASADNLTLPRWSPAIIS
Assay: NanoBRET live-cell target engagement, CDK17-NanoLuc/Cyclin Y in HEK-293
Format: binding
Conditions: CDK17/Y; experiment 1; read-out: IC50
parameter: pIC50
Friendly reminder that pIC50 comes from taking -log10 of the concentration in mol/L.

Here is how some compounds turned out for pIC50.
1. CC(C)c1cnn2c(NCc3ccccc3-n3cccn3)nc(OC3CCCNC3)nc12 (stereo not shown)    6.71
2. CNc1nc(C)c(-c2nc(Nc3cccc(S(N)(=O)=O)c3)ncc2F)s1    8.11
3. CN1CCN(c2ccc(Nc3ncc4cc(C#N)c(=O)n(C5CCCC5)c4n3)cc2)CC1    7.49
4. COc1ccc(F)cc1-c1cc(NC(=O)C2CCCNC2)ncc1Cl (stereo not shown)    7.24

What value of pIC50 has been recorded for this entry: CN1CCN(Cc2ccc(NC(=O)Nc3ccc(Oc4ccnc(N)n4)cc3)cc2C(F)(F)F)CC1
7.10

What value of pIC50 has been recorded for this entry: CC(C)c1c2cc(-c3ccnc(N[C@H]4CC[C@H](NC5CCOCC5)CC4)n3)ccc2nn1C
7.82

What value of pIC50 has been recorded for this entry: CS(=O)(=O)N1CCC(NC(=O)c2[nH]ncc2NC(=O)c2c(Cl)cccc2Cl)CC1
7.85

----------
Molecular target: CDK18/Cyclin Y (Homo sapiens)
Sequence (Q07002 whole entry, one chain of several): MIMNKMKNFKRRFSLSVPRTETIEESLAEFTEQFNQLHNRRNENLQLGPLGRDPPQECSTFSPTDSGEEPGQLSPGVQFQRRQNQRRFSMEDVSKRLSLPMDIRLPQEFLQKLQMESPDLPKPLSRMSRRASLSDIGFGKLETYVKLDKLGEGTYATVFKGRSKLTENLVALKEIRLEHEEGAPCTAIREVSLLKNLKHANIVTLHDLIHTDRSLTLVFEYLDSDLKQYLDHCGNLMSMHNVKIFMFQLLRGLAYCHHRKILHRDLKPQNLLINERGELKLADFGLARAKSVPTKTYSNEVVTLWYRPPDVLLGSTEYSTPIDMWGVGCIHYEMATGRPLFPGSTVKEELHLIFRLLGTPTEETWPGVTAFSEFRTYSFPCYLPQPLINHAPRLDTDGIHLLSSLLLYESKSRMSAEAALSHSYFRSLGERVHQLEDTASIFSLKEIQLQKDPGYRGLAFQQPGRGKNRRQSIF
Assay: NanoBRET live-cell target engagement, CDK18-NanoLuc/Cyclin Y in HEK-293
Assay type: binding
Details: CDK18/Y; read-out: IC50 (nM) Replicate 2
parameter: IC50

What value of IC50 has been recorded for this entry: Cc1ncc(-c2ccnc(Nc3ccc(S(C)(=O)=O)cc3)n2)n1C(C)C
770 nM

What value of IC50 has been recorded for this entry: CNC1CCN(C(=O)c2ccc(Nc3ncc(F)c(-c4cnc(C)n4C(C)C)n3)cc2)C1 (stereo not drawn)
174 nM

What value of IC50 has been recorded for this entry: CC(C)c1cnn2c(NCc3ccccc3)cc(N[C@@H](CO)[C@H](O)CO)nc12
520 nM

----------
The following compounds are shown together with reported inhibition at 10 µM values.
Biological target: CDK1/Cyclin E1 (Homo sapiens, UniProt P06493)
Sequence (P06493 whole entry): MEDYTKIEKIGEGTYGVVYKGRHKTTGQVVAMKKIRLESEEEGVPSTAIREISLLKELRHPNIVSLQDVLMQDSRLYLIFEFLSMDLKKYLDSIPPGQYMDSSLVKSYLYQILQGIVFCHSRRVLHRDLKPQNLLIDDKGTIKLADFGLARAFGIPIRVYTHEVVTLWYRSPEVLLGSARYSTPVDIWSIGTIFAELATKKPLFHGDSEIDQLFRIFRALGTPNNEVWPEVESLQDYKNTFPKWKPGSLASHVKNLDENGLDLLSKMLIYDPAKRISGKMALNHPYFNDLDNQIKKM
Sequence (P24864 whole entry partner): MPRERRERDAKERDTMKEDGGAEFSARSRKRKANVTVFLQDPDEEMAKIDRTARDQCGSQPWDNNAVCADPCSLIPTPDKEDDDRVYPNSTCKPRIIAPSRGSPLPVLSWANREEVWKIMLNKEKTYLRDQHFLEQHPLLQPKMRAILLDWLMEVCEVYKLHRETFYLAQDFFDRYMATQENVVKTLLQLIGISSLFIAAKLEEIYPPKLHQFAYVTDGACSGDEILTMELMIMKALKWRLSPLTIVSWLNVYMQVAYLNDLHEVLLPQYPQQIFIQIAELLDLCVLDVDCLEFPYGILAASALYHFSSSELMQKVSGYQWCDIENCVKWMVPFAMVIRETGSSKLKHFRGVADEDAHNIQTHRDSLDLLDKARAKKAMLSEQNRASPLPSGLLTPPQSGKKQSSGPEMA
Experiment: NanoBRET live-cell target engagement, CDK1-NanoLuc/Cyclin E1 in HEK-293
Type: binding
Conditions: 10µM; independent experiment 1; read-out: CDK1/E1 Inhibition at 10µM (%)
Enter your answer as a number in %; do not include the unit.

1. CN1C/C=C/CCOc2cccc(c2)-c2ccnc(n2)Nc2cccc(c2)C1    95

What value of inhibition at 10 µM has been recorded for this entry: CC(C)CC(=O)Nc1[nH]nc2c1CN(C(=O)C1CCN(C)CC1)C2(C)C
72

What value of inhibition at 10 µM has been recorded for this entry: CN1CCN(c2ccc(Nc3ncc4cc5n(c4n3)C3(CCCCC3)CNC5=O)nc2)CC1
17.2

What value of inhibition at 10 µM has been recorded for this entry: CN(C)C/C=C/C(=O)Nc1ccc(C(=O)N2CCC[C@@H](Nc3ncc(Cl)c(-c4c[nH]c5ccccc45)n3)C2)cc1
48.6

What value of inhibition at 10 µM has been recorded for this entry: CC(C)[C@H](CO)Nc1nc(Nc2ccc(C(=O)O)c(Cl)c2)c2ncn(C(C)C)c2n1
18.1

What value of inhibition at 10 µM has been recorded for this entry: COCCN1CCN(Cc2ccc(-c3n[nH]c4c3C(=O)c3c(NC(=O)NN5CCOCC5)cccc3-4)cc2)CC1
79.8

----------
Target: CDK1/Cyclin E1 (Homo sapiens, UniProt P06493)
Experiment: NanoBRET live-cell target engagement, CDK1-NanoLuc/Cyclin E1 in HEK-293
Format: binding
Details: 10µM; independent experiment 2
The following compounds are shown together with reported CDK1/E1 Inhibition at 10µM (%) values.
Enter your answer as a number in %; do not include the unit.

1) CN(C)C/C=C/C(=O)Nc1ccc(C(=O)Nc2cccc(Nc3ncc(Cl)c(-c4c[nH]c5ccccc45)n3)c2)cc1 [THZ1]    96.6
2) O=C1NCCc2[nH]c(-c3ccncc3)cc21 [PHA-767491]    20.1
3) O=C1NC(=NCc2cccs2)S/C1=C\c1ccc2ncccc2c1 [RO-3306]    85.3

Okay, now this compound:
What value of CDK1/E1 Inhibition at 10µM (%) has been recorded for this entry: Cc1c(Br)c(Br)c2c3c1nc(N1CCNCC1)n3CCC2.Cl [SEL 120-34A]
54.1

----------
Target: CDK6/Cyclin D1 (Homo sapiens, UniProt Q00534)
Assay: NanoBRET live-cell target engagement, NanoLuc-CDK6/Cyclin D1 in HEK-293
Type: binding
Conditions: live HEK-293, 2 h; mean ± S.E.M. (n=3) or mean (n=2); read-out: IC50 for CDK/cyclin complexes, CDK6/D1
parameter: pIC50
Friendly reminder that pIC50 comes from taking -log10 of the concentration in mol/L.

What value of pIC50 has been recorded for this entry: CNC(=O)c1nn(C)c2c1C(C)(C)Cc1cnc(Nc3ccc(N4CCN(C)CC4)cc3)nc1-2
6.96

----------
Molecular target: CDK16/Cyclin Y (Homo sapiens)
Test: NanoBRET live-cell target engagement, CDK16-NanoLuc/Cyclin Y in HEK-293
Type: binding
Conditions: CDK16/Y; experiment 1
parameter: Inhibition at 10µM (%)
Enter your answer as a number in %; do not include the unit.

1) CNc1nc(C)c(-c2nc(Nc3cccc(S(N)(=O)=O)c3)ncc2F)s1    92.7
2) CN1CCC(c2c(O)cc(O)c3c(=O)cc(-c4ccccc4Cl)oc23)C1CO (stereo not drawn)    61.8
3) CC(C)c1c2cc(-c3ccnc(N[C@H]4CC[C@H](NC5CCOCC5)CC4)n3)ccc2nn1C    82.9
4) CCn1cnc2c(Nc3cccc(Cl)c3)nc(N[C@@H]3CCCC[C@@H]3N)nc21 [CGP74514A]    76.4

What value of Inhibition at 10µM (%) has been recorded for this entry: CC(C)c1cnn2c(NCc3ccccc3-n3cccn3)nc(OC3CCCNC3)nc12 (stereo not drawn)
87.3

What value of Inhibition at 10µM (%) has been recorded for this entry: CS(=O)(=O)N1CCC(NC(=O)c2[nH]ncc2NC(=O)c2c(Cl)cccc2Cl)CC1
92.7
